These measurements were taken from patent US9487476B2.

Tested on: WT HIV-1 (IIIB strain)
procedure summary: Anti-HIV-1 activity, protection of infected MT-2 cells (MTT)
Assay type: cell-based
test context: Table 4, catechol diether derivatives, MT-2 cells; read-out: Anti-HIV-1 Activity (EC50)
Measured EC50, listed per entry.
Report as a plain number; the unit nM is understood.

Study these solved cases before continuing.
>  <smiles record>
N#C/C=C/c1cc(F)cc(Oc2ccc(Cl)cc2OCCn2ccc(=O)[nH]c2=O)c1

>  <assay system>
WT HIV-1 (IIIB strain)

>  <value unit>
nM

>  <assay value>
3.2

$$$$
>  <smiles record>
N#C/C=C/c1cc(F)cc(Oc2ccccc2OCCn2ccc(=O)[nH]c2=O)c1

>  <assay system>
WT HIV-1 (IIIB strain)

>  <value unit>
nM

>  <assay value>
0.9

$$$$
>  <smiles record>
N#C/C=C/c1cc(F)cc(Oc2ccc(Br)cc2OCCn2ccc(=O)[nH]c2=O)c1

>  <assay system>
WT HIV-1 (IIIB strain)

>  <value unit>
nM

>  <assay value>
1.8

$$$$
>  <smiles record>
N#C/C=C/c1cc(F)cc(Oc2ccc(F)cc2OCCn2ccc(=O)[nH]c2=O)c1

>  <assay system>
WT HIV-1 (IIIB strain)

>  <value unit>
nM

>  <assay value>
0.342

$$$$

Please look at the following compound next.
Item: N#C/C=C/c1cc(Cl)cc(Oc2ccc(F)cc2OCCn2ccc(=O)[nH]c2=O)c1 | EC50: 0.77
